Give measured IC50 for each item. Keep answers brief.
Target: recombinant full-length WRN protein (1-1432) (Homo sapiens, UniProt Q14191)
Construct: recombinant full-length WRN protein (1-1432)
Sequence (Q14191 whole entry): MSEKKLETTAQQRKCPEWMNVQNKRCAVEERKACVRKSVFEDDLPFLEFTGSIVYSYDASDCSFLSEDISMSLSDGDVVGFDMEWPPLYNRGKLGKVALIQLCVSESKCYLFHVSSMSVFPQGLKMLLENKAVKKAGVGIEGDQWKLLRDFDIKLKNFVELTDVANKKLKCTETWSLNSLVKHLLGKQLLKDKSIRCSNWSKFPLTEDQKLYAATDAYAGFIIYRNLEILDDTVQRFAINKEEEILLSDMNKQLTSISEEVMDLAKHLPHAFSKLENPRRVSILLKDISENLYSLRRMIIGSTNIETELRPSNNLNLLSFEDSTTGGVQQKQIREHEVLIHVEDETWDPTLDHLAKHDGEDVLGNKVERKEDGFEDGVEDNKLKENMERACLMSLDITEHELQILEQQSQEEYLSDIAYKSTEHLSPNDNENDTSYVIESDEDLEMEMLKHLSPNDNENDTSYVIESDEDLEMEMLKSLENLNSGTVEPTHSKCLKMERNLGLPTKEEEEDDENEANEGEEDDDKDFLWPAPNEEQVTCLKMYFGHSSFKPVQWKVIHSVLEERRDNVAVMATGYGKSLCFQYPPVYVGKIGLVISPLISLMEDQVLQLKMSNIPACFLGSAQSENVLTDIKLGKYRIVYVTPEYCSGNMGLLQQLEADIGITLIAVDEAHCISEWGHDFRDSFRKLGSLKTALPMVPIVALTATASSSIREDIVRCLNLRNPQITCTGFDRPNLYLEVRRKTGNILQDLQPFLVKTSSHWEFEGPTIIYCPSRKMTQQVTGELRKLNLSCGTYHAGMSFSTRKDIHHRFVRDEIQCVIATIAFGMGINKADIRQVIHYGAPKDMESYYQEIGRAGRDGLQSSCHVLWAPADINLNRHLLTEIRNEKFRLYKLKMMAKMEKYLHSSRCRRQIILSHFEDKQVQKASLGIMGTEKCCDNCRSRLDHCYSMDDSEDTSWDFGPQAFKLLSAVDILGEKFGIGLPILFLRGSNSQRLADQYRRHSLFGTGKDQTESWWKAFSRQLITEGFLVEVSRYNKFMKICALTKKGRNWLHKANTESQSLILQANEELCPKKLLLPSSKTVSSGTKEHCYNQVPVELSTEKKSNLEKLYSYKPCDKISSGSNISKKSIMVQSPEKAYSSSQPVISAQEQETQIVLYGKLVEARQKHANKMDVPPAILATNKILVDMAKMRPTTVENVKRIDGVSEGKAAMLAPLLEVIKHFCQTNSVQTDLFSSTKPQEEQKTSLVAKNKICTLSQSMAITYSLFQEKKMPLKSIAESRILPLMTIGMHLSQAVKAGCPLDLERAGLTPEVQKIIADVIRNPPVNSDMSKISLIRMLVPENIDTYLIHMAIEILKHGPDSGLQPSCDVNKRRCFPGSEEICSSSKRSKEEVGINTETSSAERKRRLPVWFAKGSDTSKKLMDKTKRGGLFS
Experiment: WRN unwinding activity, fluorogenic 384-well assay (Example A)
Assay type: biochemical
Details: WRN unwinding activity, 4 hr; Table 2; read-out: 4 hr UNW pIC50 (converted)
Reply numerically in nM, unit not repeated.

Q: What value of measured IC50 is listed for CC(=O)N1CCc2cc(S(=O)(=O)N(C)c3ccc([C@H]4CCC[C@@H](C(=O)Nc5ccc(C(F)(F)F)cc5F)[C@@H]4C(=O)O)cc3)ccc21 (single isomer, unassigned) [Example 89] ?
A: 200

Q: Continue with Cc1nc2cc(S(=O)(=O)N(C)c3ccc([C@@H]4CCC[C@H](C(=O)Nc5ccc(C(F)(F)F)cc5F)[C@H]4C(=O)O)cc3C#N)ccc2n1C (single isomer, unassigned) [Example 162]
A: 2

Q: Then CC[C@H]1CC[C@H](NC(=O)[C@@H]2CCC[C@H](c3ccc(N(C)S(=O)(=O)c4ccc5c(c4)nc(C)n5C)cc3)[C@H]2C(=O)O)CC1 [Example 176] ?
A: 1.26

Q: What about this compound? CN(c1ccc([C@H]2CCC[C@@H](C(=O)Nc3ccc(C(F)(F)F)cc3F)[C@@H]2C(=O)O)cc1)S(=O)(=O)c1ccc2c(c1)CN(C(=O)C(F)(F)F)CC2 [Example 108]
A: 3.16

Q: Note, next up: Cc1nc2cc(S(=O)(=O)N(C)c3ccc([C@H]4CCC[C@@H](C(=O)N[C@H]5CC[C@H](C(F)(F)F)CC5)[C@@H]4C(=O)O)cc3)ccc2n1C [Example 177]
A: 1.58

Q: Next up: Cc1sccc1-c1ccc([C@H]2CCC[C@@H](C(=O)Nc3ccc(C(F)(F)F)cc3F)[C@@H]2C(=O)O)cc1 [Example 46]
A: 31.6

Q: Query Cc1nc2cc(S(=O)(=O)N(C)c3ccc([C@@H]4C[C@H](Oc5ccccc5)C[C@H](C(=O)Nc5ccc(C(F)(F)F)cc5F)[C@H]4C(=O)O)cc3)ccc2n1C (single isomer, unassigned) [Example 153] next
A: 3160

Q: Okay, and Cc1oncc1-c1ccc([C@H]2CCC[C@@H](C(=O)Nc3ccc(C(F)(F)F)cc3F)[C@@H]2C(=O)O)cc1 [Example 53] ?
A: 15.8

Q: Entry CN(c1ccc([C@H]2CCC[C@@H](C(=O)Nc3ccc(C(F)(F)F)cc3F)[C@@H]2C(=O)O)cc1)S(=O)(=O)c1ccc2c(c1)OCC2 [Example 112] please
A: 2.51

Q: Let us now turn to Cc1nc2cc(S(=O)(=O)N(C)c3ccc([C@H]4C[C@@H](OC[C@@H]5CCOC5)C[C@@H](C(=O)Nc5ccc(C(F)(F)F)cc5F)[C@@H]4C(=O)O)cc3)ccc2n1C (stereo in doubt) [Example 320]
A: 3.98

Q: How about this compound: Cc1nc2cc(S(=O)(=O)N(C)c3ccc([C@H]4CCC[C@@H](C(=O)Nc5ccc(C(F)(F)F)cc5F)[C@@H]4C(=O)O)cc3)ccc2n1CCN(C)C [Example 278]
A: 0.631

Q: For O=C(O)[C@@H]1[C@@H](c2ccc(-c3cnoc3)cc2)CCC[C@H]1C(=O)Nc1ccc(C(F)(F)F)cc1F [Example 48] then?
A: 15.8

Q: Item: CCN(c1ccc([C@H]2CCC[C@@H](C(=O)Nc3ccc(C(F)(F)F)cc3F)[C@@H]2C(=O)O)cc1)S(=O)(=O)c1ccc2c(c1)nc(C)n2C [Example 233]
A: 12.6

Q: Next compound up: Cc1nc2cc(S(=O)(=O)N(C)c3ccc([C@H]4CCC[C@@H](C(=O)Nc5ccc(C6CCC6)cc5F)[C@@H]4C(=O)O)cc3)ccc2n1C [Example 175]
A: 3.16

Q: Queued: Cc1nc2cc(S(=O)(=O)N(C)c3ccc([C@H]4C[C@@H](N5CCCCC5)C[C@@H](C(=O)Nc5ccc(C(F)(F)F)cc5F)[C@@H]4C(=O)O)cc3)ccc2n1C (relative stereo) [Example 348]
A: 1.58

Q: Proceed to Cc1nc2cc(S(=O)(=O)N(C)c3ccc([C@@H]4C[C@@H](N5CCCC(F)(F)C5)C[C@H](C(=O)Nc5ccc(C(F)(F)F)cc5F)[C@H]4C(=O)O)cc3)ccc2n1C (stereo in doubt) [Example 362]
A: 1580

Q: Also, Cc1nc2cc(S(=O)(=O)N(C)c3ccc([C@H]4CCC[C@@H](C(=O)NC56CC(C7CCC7)(C5)C6)[C@@H]4C(=O)O)cc3)ccc2n1C [Example 198] please.
A: 5.01

Q: Do the same for O=C(O)[C@@H]1[C@@H](c2ccc(-c3ccc(F)nn3)cc2)CCC[C@H]1C(=O)Nc1ccc(C(F)(F)F)cc1F [Example 37] please
A: 2

Q: Note, next up: Cc1nc2cc(S(=O)(=O)N(C)c3ccc([C@H]4CCC[C@H](C(=O)Nc5ccc(C(C)C)cc5)[C@@H]4C(=O)O)cc3)ccc2n1C (single isomer, unassigned) [Example 74]
A: 251

Q: Here is the next compound: O=C(O)[C@@H]1[C@@H](c2ccc(-c3cccc(O)n3)cc2)CCC[C@H]1C(=O)Nc1ccc(C(F)(F)F)cc1F [Example 14]
A: 7.94

Q: Now consider Cc1nc2cc(S(=O)(=O)N(C)c3ccc([C@@H]4CCC[C@H](C(=O)Nc5ccc(C(F)(F)F)cc5F)[C@H]4C(=O)O)cc3F)ccc2n1C (single isomer, unassigned) [Example 369] .
A: 631

###

Target: recombinant full-length WRN protein (1-1432) (Homo sapiens)
Construct: recombinant full-length WRN protein (1-1432)
Assay: WRN unwinding activity, fluorogenic 384-well assay (Example A)
Assay type: biochemical
Settings: WRN unwinding activity, 4 hr; Table 2; read-out: 4 hr UNW pIC50 (converted)
Field: IC50. Provide a value for each of the compounds that follow.
Write down the numeric answer in nM and omit the unit.

Q: Returns the measured IC50 for the input compound. Input: Cc1nc2cc(S(=O)(=O)N(C)c3ccc([C@H]4C[C@](C)(O)C[C@@H](C(=O)Nc5ccc(C(F)(F)F)cc5F)[C@@H]4C(=O)O)cc3)ccc2n1C (racemic)
A: 10

Q: Cool, now Cc1nc2cc(S(=O)(=O)N(C)c3ccc([C@H]4C[C@@H](OCC5CCOCC5)C[C@@H](C(=O)Nc5ccc(C(F)(F)F)cc5F)[C@@H]4C(=O)O)cc3)ccc2n1C (stereo in doubt)
A: 3.98

Q: Then this compound: CO[C@@H]1C[C@H](c2ccc(N(C)S(=O)(=O)c3ccc4c(c3)nc(C)n4C)cc2)[C@@H](C(=O)O)[C@H](C(=O)Nc2ccc(C(F)(F)F)cc2F)C1 (single isomer, unassigned)
A: 100

Q: Field entry: `CCO[C@@H]1C[C@H](c2ccc(NS(=O)(=O)c3ccc4c(c3)nc(C)n4C)cc2)[C@@H](C(=O)O)[C@H](C(=O)Nc2ccc(C(F)(F)F)cc2F)C1`
A: 5.01

Q: Can you check Cc1nc2cc(S(=O)(=O)N(C)c3ccc([C@H]4C[C@@H](C#N)C[C@@H](C(=O)Nc5ccc(C(F)(F)F)cc5F)[C@@H]4C(=O)O)cc3)ccc2n1C (single isomer, unassigned) next?
A: 1.58

Q: Let us now turn to Cc1nc2cc(S(=O)(=O)N(C)c3ccc([C@H]4C[C@@H](N5CCCC(F)(F)C5)C[C@@H](C(=O)Nc5ccc(C(F)(F)F)cc5F)[C@@H]4C(=O)O)cc3)ccc2n1C (relative stereo)
A: 1.58

Q: Continue with Cc1nc2cc(S(=O)(=O)N(C)c3ccc([C@H]4C[C@@H](OC[C@H]5CCOC5)C[C@@H](C(=O)Nc5ccc(C(F)(F)F)cc5F)[C@@H]4C(=O)O)cc3)ccc2n1C (stereo in doubt)
A: 1.58

Q: Would you kindly repeat that for O=C(O)[C@@H]1[C@@H](c2ccc([C@H]3CCC(F)(F)C3)cc2)CCC[C@H]1C(=O)Nc1ccc(C(F)(F)F)cc1F (racemic) ?
A: 25.1

Q: Note, next up: `Nc1ccccc1-c1ccc([C@H]2CCC[C@@H](C(=O)Nc3ccc(C(F)(F)F)cc3F)[C@@H]2C(=O)O)cc1`
A: 79.4

Q: Next compound up: Cc1nc2cc(S(=O)(=O)N(C)c3ccc([C@H]4C[C@H](N5CCCC(F)(F)C5)C[C@@H](C(=O)Nc5ccc(C(F)(F)F)cc5F)[C@@H]4C(=O)O)cc3)ccc2n1C (stereo in doubt)
A: 3.98

###

Experiment: Cell culture media unbound percentage and stability by rapid equilibrium dialysis (Example C)
Type: in vitro ADME
Details: bovine, cell assay medium (RPMI-1640 with 10% fetal bovine serum), pH 7.4, rapid equilibrium dialysis, 4 hours at 37° C., read-out: Cell Culture Media Binding (% unbound)
# note: boundary value 0.1 maps to not met; fraction unbound at 4 h, 1 µM below it maps to met

Q: Quick check: fraction unbound at 4 h, 1 µM of Cc1nc2cc(S(=O)(=O)N(C)c3ccc([C@@H]4C[C@@H](N5CCC[C@@H](F)C5)C[C@H](C(=O)Nc5ccc(C(F)(F)F)cc5F)[C@H]4C(=O)O)cc3)ccc2n1C (stereo in doubt) [Example 346] under 0.1?
A: not met

Q: Same lookup for CN(c1ccc([C@H]2CCC[C@@H](C(=O)Nc3ccc(C(F)(F)F)cc3F)[C@@H]2C(=O)O)cc1)S(=O)(=O)c1ccc2ccn(C)c2c1 [Example 110] , please.
A: met

Q: Cool, now CN(c1ccc([C@H]2CCC[C@@H](C(=O)Nc3ccc(C(F)(F)F)cc3F)[C@@H]2C(=O)O)cc1)S(=O)(=O)c1cccc(C2CCNCC2)c1 [Example 261]
A: not met

Q: Repeat with CN1CCN(C)c2cc(S(=O)(=O)N(C)c3ccc([C@H]4CCC[C@@H](C(=O)Nc5ccc(C(F)(F)F)cc5F)[C@@H]4C(=O)O)cc3)ccc21 [Example 123]
A: met

Q: Please answer likewise for Cc1nc2cc(S(=O)(=O)N(C)c3ccc([C@H]4CCC[C@@H](C(=O)Nc5ccc(C(F)(F)F)cc5F)[C@@H]4C(=O)O)cc3F)ccc2n1C (single isomer, unassigned) [Example 368]
A: not met

Q: Can you handle CN[C@@H]1C[C@H](c2ccc(N(C)S(=O)(=O)c3ccc4c(c3)nc(C)n4C)cc2)[C@@H](C(=O)O)[C@H](C(=O)Nc2ccc(C(F)(F)F)cc2F)C1 (single isomer, unassigned) [Example 256] next?
A: not met

Q: Same question for CCO[C@@H]1C[C@H](c2ccc(N(C)S(=O)(=O)c3ccc4c(c3)nc3n4CCCC3)cc2)[C@@H](C(=O)O)[C@H](C(=O)Nc2ccc(C(F)(F)F)cc2F)C1 [Example 279] please.
A: met

Q: Param item: CCO[C@H]1C[C@@H](COc2ccc(C(F)(F)F)cc2)[C@H](C(=O)O)[C@@H](c2ccc(N(C)S(=O)(=O)c3ccc4c(c3)nc(C)n4C)cc2)C1 (single isomer, unassigned) [Example 221]
A: met

Q: // repeat for Cc1nc2c(F)c(S(=O)(=O)N(C)c3ccc([C@H]4CCC[C@@H](C(=O)Nc5ccc(C(F)(F)F)cc5F)[C@@H]4C(=O)O)cc3)ccc2n1C [Example 128] and report
A: met

Q: What do you get for Cc1nc2cc(S(=O)(=O)N(C)c3ccc([C@@H]4C[C@@H](N5CCCC(F)(F)C5)C[C@H](C(=O)Nc5ccc(C(F)(F)F)cc5F)[C@H]4C(=O)O)cc3)ccc2n1C (stereo in doubt) [Example 362] ?
A: not met

Q: Now this one: Cc1nc2cc(S(=O)(=O)N(C)c3ccc([C@H]4CCC[C@@H](C(=O)Nc5ccc(C(F)F)cc5F)[C@@H]4C(=O)O)cc3)ccc2n1C [Example 179]
A: not met

Q: Would you kindly repeat that for Cc1nc2cc(S(=O)(=O)N(C)c3ccc([C@H]4CCC[C@@H](C(=O)Nc5ccc(C(F)(F)F)cc5F)[C@@H]4C(=O)O)cc3)cc(Cl)c2n1C [Example 129] ?
A: met

Q: Field entry: Cc1nc2cc(S(=O)(=O)N(C)c3ccc([C@H]4CCC[C@@H](C(=O)Nc5ccc(C(F)(F)F)cc5F)[C@@H]4C(=O)O)cc3)cnc2n1C [Example 124]
A: met

Q: Query Cc1nc2cc(S(=O)(=O)N(C)c3ccc([C@H]4CCC[C@@H](C(=O)Nc5ccc(C(C)C)cc5)[C@@H]4C(=O)O)cc3)ccc2n1C [Example 396] next
A: met

Q: What about CN(c1ccc([C@H]2CCC[C@@H](C(=O)Nc3ccc(C(F)(F)F)cc3F)[C@@H]2C(=O)O)cc1)S(=O)(=O)c1ccc2scnc2c1 [Example 101] ?
A: met

Q: Further, for Cc1nc2cc(S(=O)(=O)N(C)c3ccc([C@H]4C[C@@H](OC[C@H]5COCCO5)C[C@@H](C(=O)Nc5ccc(C(F)(F)F)cc5F)[C@@H]4C(=O)O)cc3)ccc2n1C (relative stereo) [Example 327] ?
A: not met

Q: Would you mind doing Cc1nc2cc(S(=O)(=O)N(C)c3ccc([C@H]4C[C@H](N5CCC(F)(F)CC5)C[C@@H](C(=O)Nc5ccc(C(F)(F)F)cc5F)[C@@H]4C(=O)O)cc3)ccc2n1C (relative stereo) [Example 342] as well?
A: met

Q: Cc1nc2cc(S(=O)(=O)N(C)c3ccc([C@H]4CCC[C@@H](C(=O)Nc5ccc(C(F)(F)F)cc5F)[C@@H]4C(=O)O)cc3)ccc2n1CCN(C)C [Example 278] , same question.
A: not met

Q: Then this compound: CN(c1ccc([C@H]2CCC[C@@H](C(=O)Nc3ccc(C(F)(F)F)cc3F)[C@@H]2C(=O)O)cc1)S(=O)(=O)c1ccc2c(c1)nc(C1CC1)n2C [Example 130]
A: met
